Attribution: PubChem BioAssay AID1159580

assay: chemical genetic growth profiling, strain panel (AID 1159580);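 further: tested at 20 µM; growth read once vehicle control cultures reached saturation at 30 °C; 1 = growth at the plate median or of vehicle wells; lower values mean less growth of the strain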; conditions: S. cerevisiae deletion strains, growth OD, locus YML094W, strain GIM5, active compounds read low
In all, about 5,500 compounds went through this assay and about 2,000 (36%) were called active. Not shown: some 18% with an inconclusive outcome. Some of the results follow.
recorded metric: normalized growth
Number only, please.

Notebook: C(=C(c1ccccc1)c1ccccc1)N1CCC1 , normalized growth read as 0.975

Notebook: Cc1cc(C)c(Cn2nc(C(C)(C)C)cc2C(=O)Nc2cccc(C(F)(F)F)c2)c(C)c1 , normalized growth read as 1

Notebook: Cc1ccc(-c2nn[nH]n2)cc1Cl , normalized growth read as 1

Notebook: Cc1ccc(Sc2ccc([N+](=O)[O-])cc2/C=C2\SC(=S)NC2=O)cc1 , normalized growth read as 0.897

Notebook: Cn1ncc(C(=O)O/N=C(/N)c2cc(C(F)(F)F)cc(C(F)(F)F)c2)c1-n1cccc1 , normalized growth read as 0.988

Notebook: Cc1cccc(Cn2nc(C(C)(C)C)cc2C(=O)O)c1 , normalized growth read as 1

Notebook: CC(C)(C)c1cc(C(=O)NNC(=O)c2cc(C(F)(F)F)cc(C(F)(F)F)c2)n(Cc2ccc(F)cc2)n1 , normalized growth read as 0.987

Notebook: CC(=O)Nc1ccc(S(=O)(=O)Nc2c(C)n(C)n(-c3ccccc3)c2=O)cc1 , normalized growth read as 1.01

Notebook: CCCc1cc(=O)oc2cc(OCC(=O)OCC)ccc12 , normalized growth read as 0.883

Notebook: CCCc1cc(=O)oc2c1c(C)nn2-c1ccccc1 , normalized growth read as 0.921

Notebook: O=C1NC2CC2N1C(=O)OCc1ccccc1 (stereo unspecified) , normalized growth read as 0.992

###

test: chemical genetic growth profiling, strain panel (AID 1159580); details: S. cerevisiae deletion strains, growth OD, locus YMR223W, strain ubp8, active compounds read low
Hit rate of the full screen: of about 5,500 compounds, about 2,000 (36%) were called active. Roughly 18% stayed inconclusive and do not appear here. This is one part of the list.
recorded metric: normalized growth
Number only, please.

Notebook: CC12CCC(O)CC1CCC1C2[C@H](O)CC2(C)C(C3=CC(=O)OC3)CCC12O (some centres undefined) , normalized growth read as 0.983

Notebook: Oc1c(Cl)cc(Cl)cc1Sc1cc(Cl)cc(Cl)c1O , normalized growth read as 0.991

Notebook: CN[C@@H]1[C@H](O)[C@H](NC)[C@H]2O[C@@]3(O)C(=O)C[C@@H](C)O[C@H]3O[C@@H]2[C@H]1O , normalized growth read as 1.01

Notebook: C=C(C)C1(O)OC(=O)C=C1OC (centres undefined) , normalized growth read as 0.992

###

assay: chemical genetic growth profiling, strain panel (AID 1159580); conditions: S. cerevisiae deletion strains, growth OD, locus YGL248W, strain PDE1, active compounds read low
Screen size: about 5,500 compounds; about 2,000 (36%) were called active. Not shown: some 18% with an inconclusive outcome. Some of the results follow.
recorded metric: normalized growth
Number only, please.

Notebook: O=C(O)c1cccnc1 , normalized growth read as 0.983

Notebook: CC(=O)OCC(=O)[C@@]1(O)[C@H](C)CC2C3CCC4=CC(=O)C=C[C@]4(C)[C@@]3(F)[C@@H](O)C[C@@]21C (stereo not given in full) , normalized growth read as 1

Notebook: Nc1ccc(S(=O)(=O)NC(=O)c2ccccc2)cc1 , normalized growth read as 1

Notebook: CN(C)CCCN1c2ccccc2CCc2ccccc21 , normalized growth read as 1.01

Notebook: COc1cc(C(C)=O)cc(OC)c1O , normalized growth read as 0.998

Notebook: CN(C)C1C(=O)C(C(N)=O)=C(O)C2(O)C(=O)C3=C(O)c4c(O)ccc(Cl)c4C(C)(O)C3CC12 (stereo not given) , normalized growth read as 0.985

Notebook: CN(C)CCCN1c2ccccc2Sc2ccc(Cl)cc21 , normalized growth read as 0.994

Notebook: CCCN(CCC)S(=O)(=O)c1ccc(C(=O)O)cc1 , normalized growth read as 1

Notebook: CC(Cc1cccc(C(F)(F)F)c1)NCCOC(=O)c1ccccc1 (stereo not given) , normalized growth read as 0.957

Notebook: CC(C)=CCc1c2c(c3occ(-c4ccc(O)c(O)c4)c(=O)c3c1O)C=CC(C)(C)O2 , normalized growth read as 0.257

Notebook: CN(C)[C@@H]1C(=O)C(C(N)=O)=C(O)[C@@]2(O)C(=O)C3=C(O)c4c(O)ccc(Cl)c4[C@@](C)(O)[C@H]3C[C@@H]12 , normalized growth read as 0.942

Notebook: CNNC , normalized growth read as 1.02

Notebook: O=C(NCO)c1cccnc1 , normalized growth read as 0.994

Notebook: CN(C)CCCN1c2ccccc2CCc2ccc(Cl)cc21 , normalized growth read as 0.917

Notebook: C=C(C)C1(O)OC(=O)C=C1OC (stereo not given) , normalized growth read as 0.978

###

experiment: chemical genetic growth profiling, strain panel (AID 1159580);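 further: tested at 20 µM; growth read once vehicle control cultures reached saturation at 30 °C; 1 = growth at the plate median or of vehicle wells; lower values mean less growth of the strain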; settings: S. cerevisiae deletion strains, growth OD, locus YDR392W, strain spt3, active compounds read low
Among all 5,500 compounds or so, about 2,000 (36%) were called active. About 18% were inconclusive and are not listed. The list shows a part of the results.
Rule: normalized growth below 0.9 gives Y. Equal to or above 0.9 gives N.

Query: In the record for NC(=O)c1cccnc1 , is normalized growth less than 0.9?
Response: N

Query: In the record for O=C(OCc1ccccc1)c1ccccc1 , is normalized growth less than 0.9?
Response: Y

Query: In the record for N[C@@H](CCC(=O)N[C@@H](CS)C(=O)NCC(=O)O)C(=O)O , is normalized growth less than 0.9?
Response: N

Query: In the record for O=C(OOC(=O)c1ccccc1)c1ccccc1 , is normalized growth less than 0.9?
Response: N

Query: In the record for OC[C@H]1O[C@@](CO)(O[C@@H]2O[C@H](CO)[C@@H](O)[C@H](O)[C@H]2O)[C@@H](O[C@@H]2O[C@H](CO)[C@@H](O)[C@H](O)[C@H]2O)[C@@H]1O , is normalized growth less than 0.9?
Response: N

Query: In the record for CC1=CCCC2C1(C)CCC(C)C2(C)CC/C(C)=C/C[n+]1cn(C)c2c(N)ncnc21 (stereo not given) , is normalized growth less than 0.9?
Response: Y

###

test: chemical genetic growth profiling, strain panel (AID 1159580);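 further: tested at 20 µM; growth read once vehicle control cultures reached saturation at 30 °C; 1 = growth at the plate median or of vehicle wells; lower values mean less growth of the strain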; conditions: S. cerevisiae deletion strains, growth OD, locus YML032C, strain rad52, active compounds read low
In all, about 5,500 compounds went through this assay and about 2,000 (36%) were called active. About 18% were inconclusive and are not listed. The list shows a part of the results.
recorded metric: normalized growth
Number only, please.

Notebook: CC[N+](C)(C)c1cccc(O)c1 , normalized growth read as 0.954

Notebook: CC(C)=CCc1c2c(c3occ(-c4ccc(O)c(O)c4)c(=O)c3c1O)C=CC(C)(C)O2 , normalized growth read as 0.812

Notebook: CC(Cc1cccc(C(F)(F)F)c1)NCCOC(=O)c1ccccc1 (stereo unspecified) , normalized growth read as 0.941

Notebook: COC(=O)c1c(OC)cc2c(c1C)Oc1c(Cl)c(O)c(Cl)c(C)c1C(=O)O2 , normalized growth read as 0.96

Notebook: COC(=O)c1c(C)c2c(c(C)c1O)OC(=O)c1c(C)c(Cl)c(O)c(Cl)c1O2 , normalized growth read as 0.959

Notebook: NNCc1cccc(O)c1 , normalized growth read as 0.974

Notebook: COc1ccc(C2Sc3ccccc3N(CCN(C)C)C(=O)C2OC(C)=O)cc1 (stereo unspecified) , normalized growth read as 1.06

Notebook: CCOC(=O)[C@H](CCc1ccccc1)N[C@@H](C)C(=O)N1CCC[C@H]1C(=O)O , normalized growth read as 1.02

Notebook: CN(C)CCCN1c2ccccc2Sc2ccc(Cl)cc21 , normalized growth read as 0.964

Notebook: N[C@@H](CCC(=O)N[C@@H](CS)C(=O)NCC(=O)O)C(=O)O , normalized growth read as 0.989

Notebook: CN(C)CCCN1c2ccccc2CCc2ccc(Cl)cc21 , normalized growth read as 0.967

###

Consider the following molecules; for each one, report its normalized growth.
assay: chemical genetic growth profiling, strain panel (AID 1159580);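 further: tested at 20 µM; growth read once vehicle control cultures reached saturation at 30 °C; 1 = growth at the plate median or of vehicle wells; lower values mean less growth of the strain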; conditions: S. cerevisiae deletion strains, growth OD, locus YPR119W, strain clb2, active compounds read low
Among all 5,500 compounds or so, about 2,000 (36%) were called active. Another 18% or so got no clear call; they are omitted. The list shows a part of the results.
Number only, please.

Notebook: CC(Cc1cccc(C(F)(F)F)c1)NCCOC(=O)c1ccccc1 (centres undefined) , normalized growth read as 1.02

Notebook: N[C@@H](CCC(=O)N[C@@H](CS)C(=O)NCC(=O)O)C(=O)O , normalized growth read as 0.988

Notebook: CC(C)c1ccc2c(c1)CCC1[C@](C)(CN)CCC[C@]21C (some centres undefined) , normalized growth read as 0.923

Notebook: CC(C)c1ccc2c(c1)CCC1C(C)(C(N)=O)CCCC21C (centres undefined) , normalized growth read as 0.942

Notebook: CC(C)CC(NC(=O)OCC1c2ccccc2-c2ccccc21)C(=O)O (centres undefined) , normalized growth read as 1

Notebook: C=C(C)C1(O)OC(=O)C=C1OC (centres undefined) , normalized growth read as 0.987

Notebook: CN(C)[C@@H]1C(=O)C(C(N)=O)=C(O)[C@@]2(O)C(=O)C3=C(O)c4c(O)ccc(Cl)c4[C@@H](O)[C@H]3C[C@@H]12 , normalized growth read as 0.983

Notebook: C=C1c2c(Cl)ccc(O)c2C(O)=C2C(=O)[C@]3(O)C(O)=C(C(N)=O)C(=O)[C@@H](N(C)C)[C@@H]3[C@@H](O)[C@H]12 , normalized growth read as 0.985

Notebook: C=C1c2cccc(O)c2C(O)=C2C(=O)[C@]3(O)C(O)=C(C(N)=O)C(=O)[C@@H](N(C)C)[C@@H]3[C@@H](O)[C@H]12 , normalized growth read as 0.994
